Field: protein stability index. Provide a value for each of the variants that follow.
B1: ACSBG2 (parent)
chain: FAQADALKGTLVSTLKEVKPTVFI

variants of: B1; assay: protein stability index of a GFP-peptide fusion (GPS, HEK-293T) (PSI 1-6); higher = more stable; settings: c terminus: a fixed tail appended;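 also: lentivirally expressed fusions sorted by FACS into six bins by GFP to DsRed ratio, PSI derived from sequencing read proportions per bin multiplied by bin number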
Numbers only.

Reported protein stability index for FAQADALKGTLISTLKEVKPTVFI : what is it?
2.26

// each variant listed below needs its protein stability index
1. FAQADALKGTLVSTLKETKPTVFI
2. FAQADALKGTLVSTLKDVKPTVFI
3. FPQADALKGTLVSTLKEVKPTVFI
4. FAQADALKGTLVSTLKEVKPTDFI
5. FARADALKGTLVSTLKEVKPTVFI

1.26
1.48
1.48
2.99
2.92

Give one value of protein stability index per listed variant.
1. FAQAPALKGTLVSTLKEVKPTVFI
2. FAQADAIKGTLVSTLKEVKPTVFI
3. FAQADALKRTLVSTLKEVKPTVFI
4. FAQADALKGTLVSTLKEVGPTVFI
5. FAQASALKGTLVSTLKEVKPTVFI
6. NAQADALKGTLVSTLKEVKPTVFI
7. FAQADALKGTLVSTLKEVKPTVGI
8. FAQADALKGTLVSTLKEVKNTVFI

1: 1.9; 2: 1.86; 3: 2.76; 4: 3.46; 5: 2.67; 6: 2.59; 7: 2.36; 8: 2.42

Look up protein stability index for the entries below, preserving their order.
1. FAQADALKGNLVSTLKEVKPTVFI
2. FAQADALKGTLVSTLKEVKPTQFI
3. FAQADALKGTIVSTLKEVKPTVFI
4. TAQADALKGTLVSTLKEVKPTVFI
5. FAQADGLKGTLVSTLKEVKPTVFI

1.61
2.28
2.55
2.33
1.57

I'm hoping you can list protein stability index for every variant here, please.
1. FAQADALKGTGVSTLKEVKPTVFI
2. FAQADALKGTMVSTLKEVKPTVFI
3. FAQADALKGTLVSTLKEIKPTVFI

1.51
2.41
2.48

All values here come from the supplement of paper PMC10567573.
